meta.source: patent US20230365576A1

# Dmax listing for each entry below
- study_target: SMARCA4 (Homo sapiens, UniProt P51532)
- Construct: SMARCA4-HiBiT knock-in Hela monoclonal cell (CS3023226) were purchased from Promega; host or cells: HeLa (CRISPR HiBiT knock-in monoclonal line, heterozygous)
- Sequence (P51532 whole entry): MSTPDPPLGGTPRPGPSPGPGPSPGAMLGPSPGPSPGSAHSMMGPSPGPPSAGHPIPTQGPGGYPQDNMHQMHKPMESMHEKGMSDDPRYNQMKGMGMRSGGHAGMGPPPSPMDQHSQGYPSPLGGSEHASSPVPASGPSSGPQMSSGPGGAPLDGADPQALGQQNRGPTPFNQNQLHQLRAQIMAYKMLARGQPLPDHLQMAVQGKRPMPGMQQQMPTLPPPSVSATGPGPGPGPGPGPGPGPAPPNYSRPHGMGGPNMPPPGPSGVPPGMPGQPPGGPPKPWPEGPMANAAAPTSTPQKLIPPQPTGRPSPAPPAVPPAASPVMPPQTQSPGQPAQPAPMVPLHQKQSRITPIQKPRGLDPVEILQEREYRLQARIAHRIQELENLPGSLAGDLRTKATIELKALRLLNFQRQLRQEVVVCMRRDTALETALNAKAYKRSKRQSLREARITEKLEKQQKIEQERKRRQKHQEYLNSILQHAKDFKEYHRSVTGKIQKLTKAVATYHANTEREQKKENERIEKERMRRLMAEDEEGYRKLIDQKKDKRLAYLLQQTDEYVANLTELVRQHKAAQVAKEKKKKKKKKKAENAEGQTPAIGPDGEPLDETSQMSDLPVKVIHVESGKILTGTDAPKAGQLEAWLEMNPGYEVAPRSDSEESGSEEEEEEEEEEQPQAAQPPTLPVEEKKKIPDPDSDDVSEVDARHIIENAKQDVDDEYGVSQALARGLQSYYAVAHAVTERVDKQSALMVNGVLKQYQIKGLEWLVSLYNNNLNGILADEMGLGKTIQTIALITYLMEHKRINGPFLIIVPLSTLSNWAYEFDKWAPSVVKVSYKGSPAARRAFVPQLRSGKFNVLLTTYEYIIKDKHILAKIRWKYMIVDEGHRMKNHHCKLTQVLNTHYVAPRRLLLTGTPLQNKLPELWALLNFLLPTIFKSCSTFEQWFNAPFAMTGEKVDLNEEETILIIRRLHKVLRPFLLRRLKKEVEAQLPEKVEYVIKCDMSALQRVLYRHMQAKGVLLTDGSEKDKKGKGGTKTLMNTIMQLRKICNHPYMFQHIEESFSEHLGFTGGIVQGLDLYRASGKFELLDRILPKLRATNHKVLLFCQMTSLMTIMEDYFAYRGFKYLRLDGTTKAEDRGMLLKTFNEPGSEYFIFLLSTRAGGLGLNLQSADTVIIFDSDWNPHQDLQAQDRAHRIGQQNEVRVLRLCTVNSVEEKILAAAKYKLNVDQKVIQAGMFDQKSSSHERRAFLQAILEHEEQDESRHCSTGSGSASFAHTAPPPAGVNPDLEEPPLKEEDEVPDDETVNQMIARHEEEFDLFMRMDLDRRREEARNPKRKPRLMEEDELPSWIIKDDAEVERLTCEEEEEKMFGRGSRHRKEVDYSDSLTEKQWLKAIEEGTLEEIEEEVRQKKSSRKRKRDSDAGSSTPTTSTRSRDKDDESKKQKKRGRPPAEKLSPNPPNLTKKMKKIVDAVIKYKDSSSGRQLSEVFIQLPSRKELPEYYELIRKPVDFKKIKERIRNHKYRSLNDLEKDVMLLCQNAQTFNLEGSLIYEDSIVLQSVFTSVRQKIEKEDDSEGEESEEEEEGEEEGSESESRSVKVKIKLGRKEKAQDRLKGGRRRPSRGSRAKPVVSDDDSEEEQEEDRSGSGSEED
- assay_notes: SMARCA4 HiBiT degradation assay in HeLa cells
- Assay type: cell-based
- particulars: HeLa, 18 hours

Problem: Missing value: Dmax, SMARCA4 (Homo sapiens, UniProt P51532), entry C[C@@H]1CN(CC2CN(c3ccc4c(c3)C(=O)N(C3CCC(=O)NC3=O)C4)C2)C[C@H](C)N1C(=O)N1CCN2c3cc(-c4cc(F)cc(F)c4O)nnc3NC[C@H]2C1 (some centres unmarked) [Example 20] . Fill in?
Solution: < 50%

Problem: Form field: Dmax recorded for C[C@H]1CN(CC2CCN(c3ccc4c(c3)C(=O)N([C@H]3CCC(=O)NC3=O)C4)CC2)C[C@H](C)N1C(=O)N1CCN2c3cc(-c4cccc(F)c4O)nnc3NC[C@]2(C(F)F)C1 [Example 66] with SMARCA4 (Homo sapiens, UniProt P51532) (enter value)
Solution: > 75%

Problem: Request body: readout Dmax, system SMARCA4 (Homo sapiens, UniProt P51532), query CC1(C)CN(CC2CCN(c3ccc4c(c3)C(=O)N([C@H]3CCC(=O)NC3=O)C4)CC2)CCN1C(=O)N1CCN2c3cc(-c4cccc(F)c4O)nnc3NC[C@]2(C(F)F)C1 [Example 65] . Return the value.
Solution: 50 to 75%

Problem: Value wanted: Dmax (SMARCA4 (Homo sapiens, UniProt P51532)) of entry C[C@@H]1CN(CC2CCN(c3ccc4c(c3)C(=O)N(C3CCC(=O)NC3=O)C4)CC2)C[C@H](C)N1C(=O)N1CCN2c3cc(-c4cccc(Cl)c4O)nnc3NCC2(C)C1 (some centres unmarked) [Example 30]
Solution: 50 to 75%

Problem: Give the reported Dmax for C[C@@H]1C[C@H](CN2CCN(c3ccc4c(c3)C(=O)N([C@H]3CCC(=O)NC3=O)C4)CC2)C[C@H](C)N1C(=O)N1CCN2c3cc(-c4cccc(F)c4O)nnc3NCC2(C)C1 (single isomer, unassigned) [Example 120] (system: SMARCA4 (Homo sapiens, UniProt P51532)).
Solution: > 75%

====

# DC50 annotations
- study_target: SMARCA4 (Homo sapiens)
- Construct: SMARCA4-HiBiT knock-in Hela monoclonal cell (CS3023226) were purchased from Promega; host or cells: HeLa (CRISPR HiBiT knock-in monoclonal line, heterozygous)
- assay_notes: SMARCA4 HiBiT degradation assay in HeLa cells
- Type: cell-based
- particulars: 18 hours

Problem: Need DC50, item CCC12CNc3nnc(-c4cccc(F)c4O)cc3N1CCN(C(=O)N1[C@H](C)CN(CC3CCN(c4ccc5c(c4)C(=O)N(C4CCC(=O)NC4=O)C5)CC3)C[C@@H]1C)C2 (single isomer, unassigned) [Example 62]
Solution: < 100 nM

Problem: Tell me the measured DC50 of C[C@@H]1CN(C[C@H]2CN(c3ccc4c(c3)CN(C3CCC(=O)NC3=O)C4=O)CCO2)C[C@H](C)N1C(=O)N1CCN2c3cc(-c4cc(F)cc(F)c4O)nnc3NC[C@H]2C1 (stereo partly drawn) [Example 21] , please.
Solution: < 100 nM

Problem: Which DC50 is listed for CCC1CN(CC2CN(c3ccc4c(c3)C(=O)N(C3CCC(=O)NC3=O)C4)C2)CCN1C(=O)N1CCN2c3cc(-c4cc(F)cc(F)c4O)nnc3NC[C@H]2C1 (mixture of isomers) [Example 29] ?
Solution: < 100 nM

Problem: For C[C@@H]1CN(CC2CCN(c3ccc4c(c3)C(=O)N(C3CCC(=O)NC3=O)C4)CC2)C[C@H](C)N1C(=O)N1CCN2c3cc(-c4cccc(Cl)c4O)nnc3NCC2(C)C1 (single isomer, unassigned) [Example 92] , what is its reported DC50?
Solution: > 1000 nM

Problem: Any idea what DC50 was measured for CC1(C)CN(CC2CCN(c3ccc4c(c3)C(=O)N([C@H]3CCC(=O)NC3=O)C4)CC2)CCN1C(=O)N1CCN2c3cc(-c4cc(F)cc(F)c4O)nnc3NC[C@H]2C1 [Example 19] ?
Solution: < 100 nM

Problem: Given the entry C[C@@H]1CN(CC2CCN(c3ccc4c(c3)C(=O)N(C3CCC(=O)NC3=O)C4)CC2)C[C@@H](C)N1C(=O)N1CCN2c3cc(-c4cccc(Cl)c4O)nnc3NCC2(C)C1 (single isomer, unassigned) [Example 63] , report its measured DC50.
Solution: < 100 nM

Problem: May I ask what DC50 has been recorded for C[C@@H]1CN(C[C@H]2CN(c3ccc4c(c3)CN(C3CCC(=O)NC3=O)C4=O)CCO2)C[C@@H](C)N1C(=O)N1CCN2c3cc(-c4cc(F)cc(F)c4O)nnc3NC[C@H]2C1 (stereo partly drawn) [Example 46] ?
Solution: < 100 nM

Problem: Would you kindly share the measured DC50 for CC12CNc3nnc(-c4cc(F)cc(F)c4O)cc3N1CCN(C(=O)C1(F)CCN(CC3CCN(c4ccc5c(c4)C(=O)N([C@H]4CCC(=O)NC4=O)C5)CC3)CC1)C2 (single isomer, unassigned) [Example 112] ?
Solution: < 100 nM

Consider the record given below.
Problem: Entry CCC12CNc3nnc(-c4cccc(F)c4O)cc3N1CCN(C(=O)C1(F)CCN(CC3CCN(c4ccc5c(c4)C(=O)N([C@H]4CCC(=O)NC4=O)C5)CC3)CC1)C2 (single isomer, unassigned) [Example 107] has what DC50?
Solution: 100 to 1000 nM

====

A collection of molecules and their measured Dmax
- study_target: SMARCA4 (Homo sapiens, UniProt P51532)
- Construct: SMARCA4-HiBiT knock-in Hela monoclonal cell (CS3023226) were purchased from Promega; host or cells: HeLa (CRISPR HiBiT knock-in monoclonal line, heterozygous)
- assay_notes: SMARCA4 HiBiT degradation assay in HeLa cells
- Format: cell-based
- particulars: HeLa, 18 hours

The examples below pair each entry with its known result.
Problem: Recorded Dmax of CCC12CNc3nnc(-c4cc(F)cc(F)c4O)cc3N1CCN(C(=O)C1(F)CCN(CC3CCN(c4ccc5c(c4)C(=O)N([C@H]4CCC(=O)NC4=O)C5)CC3)CC1)C2 (single isomer, unassigned) , please.
Solution: > 75%

Problem: Look up Dmax for this molecule: CCC12CNc3nnc(-c4cccc(F)c4O)cc3N1CCN(C(=O)N1CCN(CC3CCN(c4ccc5c(c4)C(=O)N([C@H]4CCC(=O)NC4=O)C5)CC3)CC1(C)C)C2 (single isomer, unassigned)
Solution: 50 to 75%

Problem: What value of measured Dmax is listed for C[C@@H]1CN(C[C@H]2CN(c3ccc4c(c3)CN(C3CCC(=O)NC3=O)C4=O)CCO2)C[C@H](C)N1C(=O)N1CCN2c3cc(-c4cccc(F)c4O)nnc3NC[C@H]2C1 (stereo partly shown) ?
Solution: < 50%

Problem: Recorded Dmax for `O=C1CC[C@H](N2Cc3ccc(N4CCC(CN5CCC(F)(C(=O)N6CCN7c8cc(-c9cc(F)cc(F)c9O)nnc8NC[C@]7(C(F)F)C6)CC5)CC4)cc3C2=O)C(=O)N1` , please?
Solution: 50 to 75%

Problem: Which measured Dmax value corresponds to CC1(C)CN(CC2CCN(c3ccc4c(c3)C(=O)N([C@H]3CCC(=O)NC3=O)C4)CC2)CCN1C(=O)N1CCN2c3cc(-c4cccc(F)c4O)nnc3NCC2(CF)C1 (single isomer, unassigned) ?
Solution: < 50%

Problem: Reported Dmax, molecule O=C1CCC(N2Cc3ccc(N4CCC(CN5CCC(F)(C(=O)N6CCN7c8cc(-c9cc(F)cc(F)c9O)nnc8NC[C@H]7C6)CC5)CC4)cc3C2=O)C(=O)N1 (stereo partly shown) : ____
Solution: < 50%

Problem: Record request: Dmax value, item `O=C1CC[C@H](N2Cc3ccc(N4CCN(C[C@H]5CC[C@H](CN6CCN7c8cc(-c9cccc(F)c9O)nnc8NC[C@H]7C6)CC5)CC4)cc3C2=O)C(=O)N1`
Solution: 50 to 75%

Problem: For CC1(C)CN(CC2CN(c3ccc4c(c3)C(=O)N(C3CCC(=O)NC3=O)C4)C2)CCN1C(=O)N1CCN2c3cc(-c4cc(F)cc(F)c4O)nnc3NC[C@H]2C1 (stereo partly shown) , what is its reported Dmax?
Solution: < 50%

Problem: Consider the molecule shown here: CCC12CNc3nnc(-c4cc(F)cc(F)c4O)cc3N1CCN(C(=O)N1CCN(CC3CCN(c4ccc5c(c4)C(=O)N(C4CCC(=O)NC4=O)C5)CC3)CC1(C)C)C2 (mixture of isomers) What is its recorded Dmax?
Solution: 50 to 75%

Now for a further molecule.
Problem: Suppose we examine the molecule C[C@@H]1CN(CC2CCN(c3ccc4c(c3)C(=O)N(C3CCC(=O)NC3=O)C4)CC2)C[C@H](C)N1C(=O)N1CCN2c3cc(-c4cccc(Cl)c4O)nnc3NCC2(C)C1 (single isomer, unassigned) [Example 92] ; what Dmax value has been reported?
Solution: < 50%
